Just for reference, patent EP0210284B1 is where these values come from.

test system: Acute Liver Injury Induced by Carbon Tetrachloride; assay: Protective effect on acute liver injury induced by carbon tetrachloride; type: in vivo, mice (ddY mice); settings: Mus musculus, po, 24.5 h; 50mg/kg orally 6 hours before carbon tetrachloride (0.05ml/kg orally); retention rate of BSP in plasma 30 minutes after BSP 75mg/kg i.v.; CCl4 alone 0, Normal 100; read-out: % Prophylaxis BSP
reported_metric: inhibition in vivo at 50 mg/kg (%)
Give the value in % but do not write % after it.

Ask: Recorded inhibition in vivo at 50 mg/kg of O=C(C(C(=O)c1ccccc1)=C1SC=CS1)c1ccccc1 [Compound 34] , please.
Reply: 112

Ask: Please give the result for COc1ccc(C(=O)C(C(C)=O)=C2SC=CS2)cc1OC [Compound 18] too.
Reply: 100

Ask: # repeat for CC(=O)C(C(=O)c1ccccc1)=C1SC=CS1 [Compound 6]
Reply: 103

Ask: // next record O=C(C(C(=O)C(F)(F)F)=C1SC=CS1)c1ccccc1 [Compound 31]
Reply: 106

Ask: Try the compound CC(=O)C(C(=O)c1ccc(Br)cc1)=C1SC=CS1 [Compound 15]
Reply: 105

Ask: Then this compound: CC(C)(C)C(=O)C(C(=O)c1ccccc1)=C1SC=CS1 [Compound 9]
Reply: 103

Ask: Similarly, CC(=O)C(C(=O)c1ccc(N)cc1)=C1SC=CS1 [Compound 46] ?
Reply: 106

Ask: Continue with CC=CC(=O)C(C(=O)c1ccccc1)=C1SC=CS1 [Compound 11]
Reply: 105

Ask: Input CC(=O)C(C(=O)C=Cc1ccccc1)=C1SC=CS1 [Compound 33]
Reply: 86

Ask: Would you mind doing CC(=O)C(C(=O)c1ccncc1)=C1SC=CS1 [Compound 22] as well?
Reply: 120

Ask: Same read-out for CC(=O)C(C(=O)c1cnccn1)=C1SC=CS1 [Compound 26] ?
Reply: 99

Ask: Try the compound O=C(C=Cc1ccccc1)C(C(=O)c1ccccc1)=C1SC=CS1 [Compound 38]
Reply: 96

Ask: Next: CC(=O)C(C(=O)c1ccco1)=C1SC=CS1 [Compound 23]
Reply: 110

Ask: Now try CC(=O)C(C(=O)c1cccs1)=C1SC=CS1 [Compound 24] .
Reply: 102

Ask: // next record COc1ccccc1C(=O)C(C(C)=O)=C1SC=CS1 [Compound 16]
Reply: 95

Ask: Note, next up: CC(=O)C(C(=O)c1cccc2ccccc12)=C1SC=CS1 [Compound 27]
Reply: 100

Ask: Record: CC(=O)C(C(=O)c1ccc([N+](=O)[O-])cc1)=C1SC=CS1 [Compound 19]
Reply: 100

Ask: Further, for CC(=O)C(C(=O)c1ccc2ccccc2n1)=C1SC=CS1 [Compound 30] ?
Reply: 105

Ask: Now give it for CCCC(=O)C(C(=O)c1ccccc1)=C1SC=CS1 [Compound 7] too.
Reply: 108

Ask: What do you get for COc1ccc(C(=O)C(C(C)=O)=C2SC=CS2)cc1 [Compound 17] ?
Reply: 100

Ask: Quick one: CC(=O)C(C(=O)c1ccc2ccccc2c1)=C1SC=CS1 [Compound 28]
Reply: 100

Ask: Record: CC(=O)C(C(=O)c1cc2ccccc2[nH]1)=C1SC=CS1 [Compound 29]
Reply: 104

Ask: Now the same for CC(=O)C(C(=O)c1ccc[nH]1)=C1SC=CS1 [Compound 25]
Reply: 88

====

tested on: Acute Liver Injury Induced by Carbon Tetrachloride; assay: Protective effect on acute liver injury induced by carbon tetrachloride; assay type: in vivo, mice (ddY mice); settings: 50mg/kg orally in olive oil 6 hours before carbon tetrachloride (0.05ml/kg orally); visual score 0: normal, 2: slightly, 4: distinctly, 6: remarkably injured; n=5; CCl4 alone 6.0
reported_metric: Liver Damage Index
When you answer, write just the number.

Ask: Form entry - test system: Acute Liver Injury Induced by Carbon Tetrachloride; read-out: Liver Damage Index; molecule: CC(=O)C(C(=O)c1ccc2ccccc2c1)=C1SC=CS1 [Compound 28]
Reply: 0

Ask: Follow-up entry: CC(=O)C(C(=O)c1cc2ccccc2[nH]1)=C1SC=CS1 [Compound 29]
Reply: 0.8

Ask: How about CC(C)CC(=O)C(C(=O)c1ccccc1)=C1SC=CS1 [Compound 8] ?
Reply: 1.2

Ask: Now give it for COc1ccccc1C(=O)C(C(C)=O)=C1SC=CS1 [Compound 16] too.
Reply: 0.6

Ask: Same again, this time with CC(=O)C(C(=O)c1ccc2ccccc2n1)=C1SC=CS1 [Compound 30]
Reply: 2.0

Ask: Thanks! And CC(=O)C(C(=O)c1ccc([N+](=O)[O-])cc1)=C1SC=CS1 [Compound 19] ?
Reply: 1.6

Ask: Same question for CC(=O)C(C(=O)c1ccc(N)cc1)=C1SC=CS1 [Compound 46] please.
Reply: 0.4

Ask: Record: COc1ccc(C(=O)C(C(=O)c2ccc(OC)cc2)=C2SC=CS2)cc1 [Compound 36]
Reply: 0

Ask: Next entry: CC(=O)C(C(=O)c1cccs1)=C1SC=CS1 [Compound 24]
Reply: 0

Ask: Record: CC(=O)C(C(=O)c1ccncc1)=C1SC=CS1 [Compound 22]
Reply: 0.2

Ask: What do you have for CC(=O)C(C(=O)c1ccc(Cl)cc1)=C1SC=CS1 [Compound 14] ?
Reply: 0.4

Ask: And then CCCC(=O)C(C(=O)c1ccccc1)=C1SC=CS1 [Compound 7] , what is it?
Reply: 1.6

Ask: Likewise for CC(=O)C(C(=O)Cc1ccccc1)=C1SC=CS1 [Compound 32] ?
Reply: 0.4

Ask: Follow-up item: COc1ccc(C(=O)C(C(C)=O)=C2SC=CS2)cc1 [Compound 17]
Reply: 0

Ask: Then this molecule: O=C(Cc1ccccc1)C(C(=O)c1ccccc1)=C1SC=CS1 [Compound 37]
Reply: 1.8

Ask: For CC=CC(=O)C(C(=O)c1ccccc1)=C1SC=CS1 [Compound 11] then?
Reply: 0.8

Ask: What do we get for CC(=O)C(C(=O)c1ccccc1)=C1SC=CS1 [Compound 6] ?
Reply: 0.4

Ask: Likewise for O=C(C(C(=O)c1ccc(Cl)cc1)=C1SC=CS1)c1ccc(Cl)cc1 [Compound 35] ?
Reply: 0

Ask: Try this molecule next: CC(=O)C(C(=O)c1ccc(Br)cc1)=C1SC=CS1 [Compound 15]
Reply: 3.2

Ask: Field entry: CC(C)(C)C(=O)C(C(=O)c1ccccc1)=C1SC=CS1 [Compound 9]
Reply: 0.4

====

tested on: Acute Liver Injury Induced by Carbon Tetrachloride; assay: Protective effect on acute liver injury induced by carbon tetrachloride; format: in vivo, mice (ddY mice); conditions: 50mg/kg orally in olive oil 6 hours before carbon tetrachloride (0.05ml/kg orally); visual score 0: normal, 2: slightly, 4: distinctly, 6: remarkably injured; n=5; CCl4 alone 6.0
reported_metric: Liver Damage Index
Just the number.

Ask: I'd like to know its Liver Damage Index. The compound in question is CC(=O)C(C(=O)c1ccc(C)cc1)=C1SC=CS1
Reply: 0.6

Ask: Queued: CC(=O)C(C(=O)c1ccco1)=C1SC=CS1
Reply: 1.0

Ask: Next record, please: O=C(C=Cc1ccccc1)C(C(=O)c1ccccc1)=C1SC=CS1
Reply: 3.2

Ask: Request: CC(=O)C(C(=O)c1ccc[nH]1)=C1SC=CS1
Reply: 2.2

Ask: Another compound to look at: CC(=O)C(C(=O)c1cccc2ccccc12)=C1SC=CS1
Reply: 0

Ask: Now the same for CC(=O)C(C(=O)c1nc2ccccc2[nH]1)=C1SC=CS1
Reply: 2.4

Ask: Also need CC(=O)C(C(=O)C=Cc1ccccc1)=C1SC=CS1 , thanks.
Reply: 4.2

Ask: What about O=C(C(C(=O)c1ccccc1)=C1SC=CS1)c1ccccc1 ?
Reply: 0.8

Ask: One more compound: CC(=O)C(C(=O)c1cccnc1)=C1SC=CS1
Reply: 0.8

Ask: Next compound up: CC(=O)C(C(=O)c1ccc(O)cc1)=C1SC=CS1
Reply: 0.2

Ask: Now try COc1ccc(C(=O)C(C(C)=O)=C2SC=CS2)cc1OC .
Reply: 0.4

Ask: Can you handle O=C(C(C(=O)C(F)(F)F)=C1SC=CS1)c1ccccc1 next?
Reply: 0.4

Ask: Param item: CC(=O)C(C(=O)c1cnccn1)=C1SC=CS1
Reply: 0.4

====

system: Acute Liver Injury Induced by Carbon Tetrachloride; test: Protective effect on acute liver injury induced by carbon tetrachloride; format: in vivo, mice (ddY mice); conditions: Mus musculus, po, 24.5 h; 50mg/kg orally 6 hours before carbon tetrachloride (0.05ml/kg orally); retention rate of BSP in plasma 30 minutes after BSP 75mg/kg i.v.; CCl4 alone 0, Normal 100; read-out: % Prophylaxis BSP
reported_metric: inhibition in vivo at 50 mg/kg

Ask: Which inhibition in vivo at 50 mg/kg reading was recorded for the compound CC(=O)C(C(=O)c1nc2ccccc2[nH]1)=C1SC=CS1 ?
Reply: 103%

Ask: Lookup CC(=O)C(C(=O)c1ccc(C)cc1)=C1SC=CS1
Reply: 114%

Ask: Next: CC(=O)C(C(=O)c1ccc(O)cc1)=C1SC=CS1
Reply: 111%

Ask: // query: CC(=O)C(C(=O)c1cccnc1)=C1SC=CS1
Reply: 100%

Ask: Please do the same for O=C(C(C(=O)c1ccc(Cl)cc1)=C1SC=CS1)c1ccc(Cl)cc1 as well.
Reply: 114%

Ask: Entry O=C(Cc1ccccc1)C(C(=O)c1ccccc1)=C1SC=CS1 please
Reply: 99%

Ask: Also COc1ccc(C(=O)C(C(=O)c2ccc(OC)cc2)=C2SC=CS2)cc1 , if possible.
Reply: 119%

Ask: Same again, this time with CC(=O)C(C(=O)Cc1ccccc1)=C1SC=CS1
Reply: 124%

Ask: Note, next up: CC(C)CC(=O)C(C(=O)c1ccccc1)=C1SC=CS1
Reply: 110%

Ask: Another compound to look at: CC(=O)C(C(=O)c1ccc(Cl)cc1)=C1SC=CS1
Reply: 113%
